Values compiled from patent US20190309059A1.

target: his-labeled human IL-13 (immunogen A) (human) (UniProt P35225); assay: cell-based or functional assay
recordedMetric: TARC (pg/mL), A549 cells + IL-13 5 ng/mL + TNFα; antibody at 0.5 nM

# binder, recordedNumber
records = [
    ("29D9H8 (lead antibody, mouse hybridoma) (antibody, V domains shown, Mouse monoclonal antibody purified from hybridoma supernatant on Protein G) VH: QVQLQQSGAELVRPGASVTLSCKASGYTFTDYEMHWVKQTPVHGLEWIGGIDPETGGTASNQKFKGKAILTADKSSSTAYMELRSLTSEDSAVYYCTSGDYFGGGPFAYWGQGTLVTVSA VL: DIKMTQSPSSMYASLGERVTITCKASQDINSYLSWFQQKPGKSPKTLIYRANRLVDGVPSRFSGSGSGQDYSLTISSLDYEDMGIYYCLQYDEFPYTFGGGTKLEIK", 653),
]
